# assayed.target: T1, Human Spindlin1 50-262 (human, UniProt Q9Y657 50-262)
# T1 construct: also called SPIN1; not shown: GST, N-terminal, cleaved
# T1 sequence (Q9Y657 50-262): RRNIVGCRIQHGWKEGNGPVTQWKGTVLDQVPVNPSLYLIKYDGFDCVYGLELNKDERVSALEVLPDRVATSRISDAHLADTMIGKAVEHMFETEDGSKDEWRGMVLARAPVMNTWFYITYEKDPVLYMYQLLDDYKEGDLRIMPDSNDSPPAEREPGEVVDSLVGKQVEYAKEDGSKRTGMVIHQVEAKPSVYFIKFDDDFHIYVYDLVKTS
# measurement.description: ITC
# reported.conditions: both partners purified
Where no end group is shown, it is not given here.
reported.property: pKd
pKd here is simply -log10 of the concentration when that concentration is written in mol/L.

Endpoint output: pKd of ARTK(me3)QTARK(me2)STGGKA (also called H3K4me3K9me2; source: synthetic peptide, bought: Scilight Biotechnology LLC) [H3 1-15 K4me3K9me2 peptide] . Value? 7.62
